Reference for the values: paper PMC9482650

measurement.target: T1, SNTG1, Q9NSN8
T1 sequence (Q9NSN8 52-150, limits assumed, looked up): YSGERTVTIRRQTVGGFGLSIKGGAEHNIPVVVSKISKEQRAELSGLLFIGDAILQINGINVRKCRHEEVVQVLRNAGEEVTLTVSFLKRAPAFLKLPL
method.notes: holdup assay
Set-up: key: below the threshold = too weak to quantify, mostly under pKd 3.1 to 4
condition.notes: plain residues with an end cap or a label only (N-terminal biotin on a linker: ado-ado)

binder	pKd
HYPASPDSWV [CTNND2, Q9UQB3]	4.64
PLATCDETSI [SEMA4F, O95754]	4.53
GTMFLRETSL [GUCY1A2, P33402]	5.09
PLPPEEESWV [GAS2L2, Q8NHY3]	5.6
